Attribute: Inhibition
Tested on: Rattus norvegicus
Test: % inhibition of AI pressor response at 60 minutes after intravenous administration of 0.5 micro mol/kg of compound in rat
Format: functional
Give the number; % is assumed, so skip it.

[
  {
    "compound": "O=C(N[C@H]1CCS[C@H]2CCC[C@@H](C(=O)O)N2C1=O)[C@@H](S)Cc1ccccc1 [OMAPATRILAT]",
    "numeric.readout": 60
  },
  {
    "compound": "O=C(N[C@H]1CCC[C@H]2CC[C@@H](C(=O)O)N2C1=O)[C@@H](S)Cc1ccccc1",
    "numeric.readout": 3
  },
  {
    "compound": "O=C(N[C@H]1CCO[C@H]2CC[C@@H](C(=O)O)N2C1=O)[C@@H](S)Cc1ccccc1",
    "numeric.readout": 3
  }
]

Q) What measured Inhibition goes with `O=C(N[C@H]1CCC[C@H]2CCC[C@@H](C(=O)O)N2C1=O)[C@@H](S)Cc1ccccc1` ?
A) 35

Q) What measured Inhibition goes with `O=C(N[C@H]1CCS[C@H]2CC[C@@H](C(=O)O)N2C1=O)[C@@H](S)Cc1ccccc1` ?
A) 60

====

Test system: Rattus norvegicus
Experiment: 50% inhibition of the AI pressor response in normotensive rat after intravenous administration at a dose 0.5 umol/kg
Type: functional
Please assign false (0) whenever ED50 is at or above 0.06 µmol/kg, and true (1) whenever it is below.

[
  {
    "compound": "CCOC(C)=O.O=C(N[C@H]1CS[C@H]2CCC[C@@H](C(=O)O)N2C1=O)[C@@H](S)Cc1ccccc1",
    "category": "false (0)"
  }
]

Q) Lab log: compare recorded ED50 with 0.06 µmol/kg; is it strictly lower for O=C(N[C@H]1CCS[C@H]2CCC[C@@H](C(=O)O)N2C1=O)[C@@H](S)Cc1ccccc1 [OMAPATRILAT] ?
A) false (0)

Q) Lab log: compare recorded ED50 with 0.06 µmol/kg; is it strictly lower for `CCOC(C)=O.O=C(N[C@H]1CCO[C@H]2CCC[C@@H](C(=O)O)N2C1=O)[C@@H](S)Cc1ccccc1` ?
A) true (1)

Q) Lab log: compare recorded ED50 with 0.06 µmol/kg; is it strictly lower for `O=C(N[C@H]1CCS[C@H]2CC[C@@H](C(=O)O)N2C1=O)[C@@H](S)Cc1ccccc1` ?
A) true (1)

====

Target: UniProt:P12822
Sequence (P12822 whole entry): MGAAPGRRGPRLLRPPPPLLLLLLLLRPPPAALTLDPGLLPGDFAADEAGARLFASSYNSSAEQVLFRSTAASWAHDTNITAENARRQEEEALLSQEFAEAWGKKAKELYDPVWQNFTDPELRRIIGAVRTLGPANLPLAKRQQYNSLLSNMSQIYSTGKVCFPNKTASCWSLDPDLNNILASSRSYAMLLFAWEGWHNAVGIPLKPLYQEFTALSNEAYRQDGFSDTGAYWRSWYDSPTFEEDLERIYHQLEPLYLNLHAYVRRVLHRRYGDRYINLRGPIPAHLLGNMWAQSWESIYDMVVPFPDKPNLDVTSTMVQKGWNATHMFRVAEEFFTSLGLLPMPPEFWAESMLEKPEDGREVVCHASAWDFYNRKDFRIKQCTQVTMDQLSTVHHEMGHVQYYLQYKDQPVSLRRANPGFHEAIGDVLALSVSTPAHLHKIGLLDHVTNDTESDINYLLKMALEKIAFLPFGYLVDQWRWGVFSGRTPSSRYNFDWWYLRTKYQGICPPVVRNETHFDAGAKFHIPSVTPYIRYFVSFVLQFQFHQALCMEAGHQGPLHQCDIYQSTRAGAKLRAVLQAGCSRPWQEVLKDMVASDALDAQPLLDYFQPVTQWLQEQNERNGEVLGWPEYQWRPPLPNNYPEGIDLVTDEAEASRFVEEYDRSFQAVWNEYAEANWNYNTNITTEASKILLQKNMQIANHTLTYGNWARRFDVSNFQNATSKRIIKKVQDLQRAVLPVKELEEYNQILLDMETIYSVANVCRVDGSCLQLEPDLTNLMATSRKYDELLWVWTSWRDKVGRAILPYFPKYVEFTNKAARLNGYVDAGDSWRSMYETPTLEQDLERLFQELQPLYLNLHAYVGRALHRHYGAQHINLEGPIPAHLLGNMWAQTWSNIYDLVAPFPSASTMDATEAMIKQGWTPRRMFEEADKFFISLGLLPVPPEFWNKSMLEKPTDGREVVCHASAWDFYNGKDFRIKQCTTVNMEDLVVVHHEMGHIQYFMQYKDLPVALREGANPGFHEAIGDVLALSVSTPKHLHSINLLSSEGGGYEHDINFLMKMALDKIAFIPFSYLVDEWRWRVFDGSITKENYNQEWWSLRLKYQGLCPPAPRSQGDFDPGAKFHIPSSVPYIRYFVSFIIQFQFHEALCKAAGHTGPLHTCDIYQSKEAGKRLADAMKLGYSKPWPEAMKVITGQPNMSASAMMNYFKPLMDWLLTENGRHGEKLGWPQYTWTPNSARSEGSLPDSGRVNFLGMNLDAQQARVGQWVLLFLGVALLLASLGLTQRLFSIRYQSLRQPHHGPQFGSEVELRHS
Assay: In vitro inhibition of ACE (Angiotensin I converting enzyme) isolated from rabbit lung extract
Conditions: read-out: I50
experimental.endpoint: IC50 (nM)
Give the number; nM is assumed, so skip it.

Past entries and their recorded results:
[
  {
    "molecule": "O=C(N[C@H]1CCO[C@H]2CC[C@@H](C(=O)O)N2C1=O)[C@@H](S)Cc1ccccc1",
    "experimental.endpoint": "IC50",
    "numeric.readout": 7
  },
  {
    "molecule": "O=C(N[C@H]1CCS[C@H]2CCC[C@@H](C(=O)O)N2C1=O)[C@@H](S)Cc1ccccc1 [OMAPATRILAT]",
    "experimental.endpoint": "IC50",
    "numeric.readout": 5
  },
  {
    "molecule": "O=C(N[C@H]1CCS[C@H]2CC[C@@H](C(=O)O)N2C1=O)[C@@H](S)Cc1ccccc1",
    "experimental.endpoint": "IC50",
    "numeric.readout": 4
  }
]

Q) What measured IC50 goes with `CCOC(C)=O.O=C(N[C@H]1CCO[C@H]2CCC[C@@H](C(=O)O)N2C1=O)[C@@H](S)Cc1ccccc1` ?
A) 8

Q) What measured IC50 goes with `CCOC(C)=O.O=C(N[C@H]1CS[C@H]2CCC[C@@H](C(=O)O)N2C1=O)[C@@H](S)Cc1ccccc1` ?
A) 5

Hey, just so you know, these numbers are from ChEMBL document CHEMBL1130034.
